assay: RP, Waters CORTECS T3, 100 × 2.1 mm, 2.7 µm, 0.3 mL/min, estimated dead time 0.73 min; A: water + 0.1% formic acid, pH 3; B: methanol + 0.1% formic acid, pH 3; gradient (min/%B) 0/5 5/5 25/95 25.1/100 35/100 35.1/5 45/5; settings: stereoisomer not certain
endpoint: LC retention time (min)

1) CCCCCCCCCC(=O)OCC(COP(=O)([O-])OCC[N+](C)(C)C)OC(=O)CCCCCCCCC (stereo not drawn) [1,2-DIDECANOYL-SN-GLYCERO-3-PHOSPHOCHOLINE] :: 25.3
2) CC(=O)N[C@H](Cc1c[nH]c2ccccc12)C(=O)O [N-ACETYL-D-TRYPTOPHAN] :: 12.5
3) NC(Cc1ccc(Oc2cc(I)c(O)c(I)c2)c(I)c1)C(=O)O (stereo not drawn) [3,3',5'-TRIIODOTHYRONINE] :: 17.9

###

assay: RP, Waters CORTECS T3, 100 × 2.1 mm, 2.7 µm, 0.3 mL/min, estimated dead time 0.73 min; A: water + 0.1% formic acid, pH 3; B: methanol + 0.1% formic acid, pH 3; gradient (min/%B) 0/0 1/0 6/5 30/100 35/100 35.1/0 40/0; details: stereoisomer not certain
endpoint: LC retention time (min)

1. Nc1ncnc2c1ncn2C1CC(O)C(COP(=O)(O)O)O1 (centres undefined) :: 0.92
2. Cc1cc2nc3c(=O)[nH]c(=O)nc-3n(CC(O)C(O)C(O)CO)c2cc1C (centres undefined) :: 13.5
3. NC(=O)C1CCCN1C(=O)C(Cc1cnc[nH]1)NC(=O)C1CCC(=O)N1 (centres undefined) :: 0.92
4. NC(=O)Cc1c[nH]c2ccccc12 [INDOLE-3-ACETAMIDE] :: 11.4
5. O=C(O)C=Cc1cnc[nH]1 [UROCANATE] :: 0.9
6. CC12CCC(=O)C=C1CCC1C2C(=O)CC2(C)C1CCC2(O)C(=O)CO (centres undefined) :: 18.9
7. Nc1ccnc(=O)[nH]1 :: 0.9
8. N[C@@H](Cc1ccccc1)C(=O)O :: 13.6
9. O=C(O)Cc1c[nH]c2ccc(O)cc12 [5-HYDROXYINDOLEACETATE] :: 10.1
10. CCCCCCSCC(NC(=O)CCC(N)C(=O)O)C(=O)NCC(=O)O (centres undefined) :: 18.1
11. O=C(O)c1cc(=O)c2cccc(O)c2[nH]1 :: 10.5
12. Nc1nc2nccnc2c(=O)[nH]1 :: 2.75
13. CC(C)=CCNc1ncnc2nc[nH]c12 :: 13.6
14. O=C([O-])Cc1c[nH]c2ccccc12 [INDOLE-3-ACETATE] :: 14.8
15. NC(=O)[C@@H](N)Cc1c[nH]c2ccccc12 [L-TRYPTOPHANAMIDE] :: 7.63
16. O=CCc1c[nH]c2ccccc12 :: 10.8
17. CC(=O)N[C@H](Cc1c[nH]c2ccccc12)C(=O)O :: 14.2
18. COc1cc(C=CC(=O)O)ccc1O [FERULATE] :: 14.1
19. NC(N)=NCCCC(=O)O [4-GUANIDINOBUTANOATE] :: 0.9
20. O=c1[nH]c(=O)c2[nH]cnc2[nH]1 :: 2.17
21. CNCCc1c[nH]c2ccccc12 :: 9.8
22. N[C@@H](Cc1cc(I)c(Oc2ccc(O)cc2)c(I)c1)C(=O)O :: 18
23. Cc1cc2nc[nH]c2cc1C :: 12
24. O=c1cccc[nH]1 [2-HYDROXYPYRIDINE] :: 2.69
25. N[C@@H](Cc1ccc(O)c([N+](=O)[O-])c1)C(=O)O :: 6.9
26. CC12CCC(=O)C=C1CCC1C2C(O)CC2(C)C1CCC2(O)C(=O)CO (centres undefined) :: 19.4
27. CC(=O)OCC(=O)C1(O)CCC2C3CCC4=CC(=O)CCC4(C)C3C(O)CC21C (centres undefined) [CORTISOL 21-ACETATE] :: 21.1
28. OCCc1c[nH]c2ccccc12 :: 14.6
29. O=C(O)c1cc(=O)c2ccccc2[nH]1 [4-HYDROXY-2-QUINOLINECARBOXYLIC ACID] :: 10.7

###

assay: HILIC, Merck SeQuant ZIC-HILIC, 150 × 2.1 mm, 5 µm, 0.75 mL/min, estimated dead time 0.44 min; A: water + 10 mM ammonium formate, pH 6; B: 5% water + 95% acetonitrile + 10 mM ammonium formate, pH 6; gradient (min/%B) 0/95 5/95 20/57 25/57 30/95 40/95; conditions: stereoisomer not certain
Listed here: items and their measured LC retention time.
endpoint: LC retention time (min)

1) NCCC(=O)NC(Cc1cnc[nH]1)C(=O)O (stereo not given) [CARNOSINE] :: 15.9
2) O=C(O)C1(O)CC(O)C(O)C(O)C1 (stereo not given) [QUINATE] :: 12.3
3) NC(C(=O)O)C(O)C(O)C(O)CO (stereo not given) [GLUCOSAMINATE] :: 14.3
4) CC(C)(CO)C(O)C(=O)NCCC(=O)O [D-PANTOTHENIC ACID] :: 10.5
5) CC(O)(CC(=O)O)CC(=O)O [3-HYDROXY-3-METHYLGLUTARATE] :: 12.8
6) Nc1ccn(C2CC(O)C(COP(=O)(O)O)O2)c(=O)n1 (stereo not given) [2'-DEOXYCYTIDINE 5'-MONOPHOSPHATE] :: 14.5
7) CC(O)(CC(=O)O)C(=O)O (stereo not given) [CITRAMALATE] :: 12.8
8) CC(=O)NC(CCCCN)C(=O)O [N-ALPHA-ACETYL-L-LYSINE] :: 13.6
9) CC(=O)N[C@@H](CC(=O)O)C(=O)O [N-ACETYL-L-ASPARTIC ACID] :: 14
10) CC1NCCc2cc(O)c(O)cc21 (stereo not given) [1-METHYL-6,7-DIHYDROXY-1,2,3,4-TETRAHYDROISOQUINOLINE] :: 8.92

###

test: RP, Waters ACQUITY UPLC BEH C18, 100 × 2.1 mm, 1.7 µm, 0.1 mL/min, estimated dead time 2.2 min; A: water + 0.1% formic acid, pH 3; B: methanol + 0.1% formic acid, pH 3; gradient (min/%B) 0/5 5/5 25/100 30/100 30.1/5 35/5; conditions: stereoisomer not certain
endpoint: LC retention time

1. NC(N)=NCCCC(=O)O [4-GUANIDINOBUTANOATE] :: 2.71 min
2. CC(=O)OCC(=O)C1CCC2C3CCC4=CC(=O)CCC4(C)C3CCC12C (stereo not drawn) [DEOXYCORTICOSTERONE ACETATE] :: 24.5 min
3. CCCCC(CC)COC(=O)c1ccccc1C(=O)OCC(CC)CCCC (stereo not drawn) [BIS(2-ETHYLHEXYL)PHTHALATE] :: 30 min

###

experiment: RP, Waters CORTECS T3, 100 × 2.1 mm, 2.7 µm, 0.15 mL/min, estimated dead time 1.5 min; A: water + 0.1% formic acid, pH 3; B: methanol + 0.1% formic acid, pH 3; gradient (min/%B) 0/5 5/5 25/95 25.1/100 35/100 35.1/5 45/5; conditions: stereoisomer not certain
Criterion: LC retention time meeting or surpassing 8 min. Met: label 1. Not met: label 0.

1. CC(C)=CCNc1ncnc2nc[nH]c12 [N6-(DELTA2-ISOPENTENYL)-ADENINE] :: label 1
2. Cc1ncc(CO)c(C(=O)O)c1O [4-PYRIDOXATE] :: label 0
3. O=C(O)c1cc(=O)c2cccc(O)c2[nH]1 [XANTHURENIC ACID] :: label 1
4. O=C(O)CCCCC1SCC2NC(=O)NC21 (stereo not drawn) [BIOTIN] :: label 1
5. CCC(NC(=O)CCC(N)C(=O)O)C(=O)NCC(=O)O (stereo not drawn) [OPHTHALMIC ACID] :: label 0
6. CC(=O)N[C@@H](CC(=O)O)C(=O)O [N-ACETYL-L-ASPARTIC ACID] :: label 0
7. N[C@@H](Cc1ccc(O)c([N+](=O)[O-])c1)C(=O)O [3-NITRO-L-TYROSINE] :: label 1
8. O=c1[nH]c(=O)c2[nH]cnc2[nH]1 [XANTHINE] :: label 0
9. O=C([O-])CCc1ccccc1O [3-(2-HYDROXYPHENYL)PROPANOATE] :: label 1
10. CC(=O)N[C@H](Cc1c[nH]c2ccccc12)C(=O)O [N-ACETYL-D-TRYPTOPHAN] :: label 1
11. Nc1nc2ncc(CNc3ccc(C(=O)NC(CCC(=O)O)C(=O)O)cc3)nc2c(=O)[nH]1 (stereo not drawn) [FOLIC ACID] :: label 1
12. CC(=O)NCCCC(=O)[O-] [4-ACETAMIDOBUTANOATE] :: label 0
13. O=C(O)c1ccc2ccccc2c1[O-] [1-HYDROXY-2-NAPHTHOATE] :: label 1
